# Experimental system: T1, human CD19 (human, UniProt P15391 20-291, biotinylated in the Biacore assay of Table 11)
# T1 construct: also called isolated CD19; Human CD19 Protein
# T1 sequence (looked up): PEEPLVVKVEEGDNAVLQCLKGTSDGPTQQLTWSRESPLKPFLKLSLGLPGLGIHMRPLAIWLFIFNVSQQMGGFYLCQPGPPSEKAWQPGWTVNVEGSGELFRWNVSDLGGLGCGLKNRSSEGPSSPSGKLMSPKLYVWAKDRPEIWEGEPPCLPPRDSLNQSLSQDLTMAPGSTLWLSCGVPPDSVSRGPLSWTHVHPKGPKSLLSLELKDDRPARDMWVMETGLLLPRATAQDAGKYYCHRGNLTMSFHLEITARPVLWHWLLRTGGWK
# Method: SPR Biacore 8K, captured biotinylated CD19, scFv analyte
Quantity: Kd

[[record]]
binder = "CNG-CD19-101 VL-VH scFv (scFv, scFv without the engineered disulfide) scFv: DIVMTQTPLSLSVTPGQPASISCKSSQSLETTTGTTYLNWYLQKPGQSPQLLIYRASKRFSGVPDRFSGSGSGTDFTLKISRVEAEDVGVYYCLQLLEDPYTFGQGTKLEIKGGGGSGGGGSGGGGSQVQLVQSGAEVKKPGASVKVSCKASGYDFTDYIMHWVRQAPGQGLEWMGYINPYNDGSKYTDKFQERVTMTSDTSISTAYMELSRLRSDDTAVYYCARGTYYYGPELFDYWGQGTTVTVSS"
quantity = "Kd"
result = "6.73 pM"

